tested on: 941728-121-R-J1-PDC complex spheroid viability; assay: Anticancer human tumor 941728-121-R-J1-PDC patient-derived lung adenocarcinoma cell line growth inhibition [RAS]; conditions: curve of first compound; second compound 0.003 µM
quantity kind: IC50

[Q] GET /values?readout=IC50&item= Cc1nc(N2CCC3(CC2)COC(C)C3N)c(CO)nc1Sc1ccnc(N)c1Cl (centres undefined) + CCn1c(-c2cc(N3CCN(C)CC3)cnc2C(C)OC)c2c3cc(ccc31)-c1csc(n1)CC(NC(=O)C1CC1C)C(=O)N1CCCC(N1)C(=O)OCC(C)(C)C2
[A] < 31.6 nM

----------
tested on: 941728-121-R-J1-PDC complex spheroid viability; experiment: Anticancer human tumor 941728-121-R-J1-PDC cell line growth inhibition [RAS]; details: second compound 0.000949 µM; first compound 1 µM; stronger effect = lower value;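 note: spheroids exposed to compounds for 7 days before readout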;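 for viability, T/C: 100% = DMSO vehicle control viability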
quantity kind: viability, T/C (%)
All answers are understood in %, so give the number only.

// below: answered molecules
| molecule | unit text | reported |
| --- | --- | --- |
| Nc1ccn(C2OC(CO)C(O)C2(F)F)c(=O)n1 (centres undefined) + CCn1c(-c2cc(N3CCN(C)CC3)cnc2C(C)OC)c2c3cc(ccc31)-c1csc(n1)CC(NC(=O)C1CC1C)C(=O)N1CCCC(N1)C(=O)OCC(C)(C)C2 | % | 17.1 |
| CC(Nc1ccc2c(c1)OCCn1cc(N3C(=O)OCC3C(F)F)nc1-2)C(N)=O (centres undefined) + CCn1c(-c2cccnc2C(C)OC)c2c3cc(ccc31)N1CCOC(CC(NC(=O)C(C(C)C)N(C)C(=O)C3(F)CCN(C(=O)C#CC(C)(C)N(C)C)CC3)C(=O)N3CCCC(N3)C(=O)OCC(C)(C)C2)C1 | % | 15.8 |
| O=C(c1ccc(F)c(F)c1Nc1ccc(I)cc1F)N1CC(O)([C@@H]2CCCCN2)C1 + CCn1c(-c2cccnc2C(C)OC)c2c3cc(ccc31)N1CCOC(CC(NC(=O)C(C(C)C)N(C)C(=O)C3(F)CCN(C(=O)C#CC(C)(C)N(C)C)CC3)C(=O)N3CCCC(N3)C(=O)OCC(C)(C)C2)C1 | % | 7.9 |

Turning to the following molecule.
[Q] Value lookup for viability, T/C; key = Cc1nc(N2CCC3(CC2)COC(C)C3N)c(CO)nc1Sc1ccnc(N)c1Cl (centres undefined) + CCn1c(-c2cccnc2C(C)OC)c2c3cc(ccc31)N1CCOC(CC(NC(=O)C(C(C)C)N(C)C(=O)C3(F)CCN(C(=O)C#CC(C)(C)N(C)C)CC3)C(=O)N3CCCC(N3)C(=O)OCC(C)(C)C2)C1
[A] 18.1
